- PROCEDURE DETAILS: Rat plasma:brain level
- Format: in vivo
- MEASUREMENT CONDITIONS: SD, brain and plasma, iv, 0.2 mg/kg
MEASURED ENDPOINT: Kp uu at […]

As a guide, the following entries are already answered.
{"columns": ["MOLECULE", "OBSERVED VALUE"],
 "data": [
  ["Cc1cc(C)c2c(n1)sc1c(N3CCCC3)nccc12 [18d]", 4.87],
  ["Cc1cc(C)c2c(n1)sc1c(NCc3ccc(C(C)(C)O)cc3)nccc12 [18b]", 1.16],
  ["Cc1cc(C)c2c(n1)sc1c(NC3CCC3)nccc12 [18g]", 4.18],
  ["Cc1cc(C)c2c(n1)sc1c(N3CCCC3)ncnc12 [16w]", 0.65],
  ["Cc1cc(C)c2c(n1)sc1c(NCc3ccc(S(C)(=O)=O)cc3)ncnc12 [16o]", 0.21],
  ["Cc1cc(C)c2c(n1)sc1c(C3CCN(C(=O)C4(C)CC4)CC3)ncnc12 [28b]", 0.35]
]}

A: Cc1cc(C)c2c(n1)sc1c(N3CC4(COC4)C3)ncnc12 [16y]
B: Cc1cc(C)c2c(n1)sc1c(N3CCC3)ncnc12 [16x]
Could you kindly indicate whether A or B has the higher Kp uu at […] value? Mark your answer with the label of the selected entry.
A
(A: 0.4, B: 0.27)

---

- PROCEDURE DETAILS: Human microsomal intrinsic clearance and predicted hepatic clearance
- Assay type: in vitro ADME
- MEASUREMENT CONDITIONS: microsomes
MEASURED ENDPOINT: CLint scaled (mL/min/kg)

{"columns": ["MOLECULE", "CLint scaled [mL/min/kg]"],
 "data": [
  ["Cc1cc(C)c2c(n1)sc1c(NCc3ccc(C(C)(C)O)cc3)nccc12 [18b]", 50],
  ["Cc1cc(C)c2c(n1)sc1c(C3CCN(C(=O)C4(C)CC4)CC3)ncnc12 [28b]", 25],
  ["Cc1cc(C)c2c(n1)sc1c(NC3CCC3)nccc12 [18g]", 345],
  ["Cc1cc(C)c2c(n1)sc1c(N3CC4(COC4)C3)ncnc12 [16y]", 129],
  ["Cc1cc(C)c2c(n1)sc1c(N3CCCC3)nccc12 [18d]", 161]
]}

P: Cc1cc(C)c2c(n1)sc1c(N3CCCC3)ncnc12 [16w]
Q: Cc1cc(C)c2c(n1)sc1c(NCc3ccc(S(C)(=O)=O)cc3)ncnc12 [16o]
R: Cc1cc(C)c2c(n1)sc1c(N3CCC3)ncnc12 [16x]
Sort the 3 molecules by CLint scaled; largest first, smallest last. Please write the labels in the order that was asked for.
R, P, Q
(R: 296 mL/min/kg, P: 134 mL/min/kg, Q: 28 mL/min/kg)

---

- PROCEDURE DETAILS: Rat plasma:brain level
- Format: in vivo
- MEASUREMENT CONDITIONS: SD, brain and plasma, iv, 0.2 mg/kg, Kpuu, brain:plasma, SD Rat, 0.2 mg/kg IV, […]
As shown below, each of these molecules has a reported Kp at […] value.

As a guide, the following entries are already answered.
{"columns": ["MOLECULE", "Kp at […]"],
 "data": [
  ["Cc1cc(C)c2c(n1)sc1c(C3CCN(C(=O)C4(C)CC4)CC3)ncnc12 [28b]", "0.35 to 0.65"],
  ["Cc1cc(C)c2c(n1)sc1c(N3CCCC3)ncnc12 [16w]", "0.35 to 0.65"]
]}

Now for another entry.
Fill blank: measured Kp at […] of the molecule Cc1cc(C)c2c(n1)sc1c(N3CC4(COC4)C3)ncnc12 [16y] is ____.
0.35 to 0.65
